# ASSAY_SYSTEM: recombinant human IGFBP-3 (human, UniProt P17936 28-291)
# Sequence (P17936 28-291 limits assumed): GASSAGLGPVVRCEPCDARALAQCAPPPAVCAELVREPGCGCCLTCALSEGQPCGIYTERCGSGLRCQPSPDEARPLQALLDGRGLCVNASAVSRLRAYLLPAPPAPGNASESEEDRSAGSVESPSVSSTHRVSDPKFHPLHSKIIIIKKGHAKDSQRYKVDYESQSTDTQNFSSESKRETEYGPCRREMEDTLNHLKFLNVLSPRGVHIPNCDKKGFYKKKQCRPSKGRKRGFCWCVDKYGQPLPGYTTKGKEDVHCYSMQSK
# PROTOCOL_TEXT: phage ELISA (IGF-blocking phage assay): g8 peptide-phage on an IGFBP-3-coated plate, without and with IGF-1; OD492
No end group written: not given here.
OBSERVABLE: binding result

>>> result("TGVDCQCGPVHCVCMDWA (whole phage particle in the assay; also called peptide-phage clone 23B3.1 (g8 display)) [23B3.1]")
"binds"
>>> result("AMWVCVSDWETVEECIQYMY (not fully specified (bridges); cysteine pairing not given here; also: displayed on phage as g8p fusion, whole phage particle in the assay; also called peptide-phage clone 23D3.5 (g8 display)) [23D3.5]")
"binds"
>>> result("GDVECIEGPWGELCVWAD (not fully specified (bridges); cysteine pairing not given here; also: displayed on phage coat protein g8, whole phage particle in the assay; also called peptide-phage clone 23B3.7 (g8 display)) [23B3.7]")
"binds"
>>> result("TNWFFVCESGHQDICWLAEE (not fully specified (bridges); cysteine pairing not given here; also: displayed on phage as g8p fusion, whole phage particle in the assay; also called peptide-phage clone 23D3.6 (g8 display)) [23D3.6]")
"binds"
